Data credit: ChEMBL document CHEMBL1201862

# System: SNB-75
# Test Summary: NCI tumour cell line growth inhibition, 48 h
Calls of active or inactive are those of the source. Rule as the data show it: active = GI50 up to about 1.1 µM and inactive = higher.
Assay Metric: GI50

• CC(C)[Si](OC/C(=C/COC(C)(C)C)[C@H]1CC=C(C(=O)c2ccccc2N2CN(C)C(=O)N(C)C2)C1)(C(C)C)C(C)C = 14.1 µM (inactive)
• CN(C)CCNC(=O)c1cc([N+](=O)[O-])cn1C = > 100 µM (inactive)
• N#Cc1c(N)c2c(c(-c3ccccc3)c1-c1ccccc1)C(=O)N(O)C2=O = 34 µM (inactive)
• Clc1ccc(-c2cc(-c3cc4cc(Br)ccc4nc3Cl)on2)cc1 = 25.1 µM (inactive)
• CC(=O)O[C@H]1/C(=C/c2ccc(N(C)C)cc2)C[C@H]2[C@@H]3CC=C4C[C@@H](N5CCCC5)CC[C@]4(C)[C@H]3CC[C@]12C = > 100 µM (inactive)
• CCOC(=O)/C(=C\c1ccc(N(CCC#N)CCC#N)cc1C)NC(=O)/C=C/c1ccccc1 = > 100 µM (inactive)
• CC(=O)OCC1OC(n2c3c(cc(C#N)c2=S)CCCCC3)C(OC(C)=O)C(OC(C)=O)C1OC(C)=O (stereo not given) = 99.1 µM (inactive)
• COC(=O)c1ccccc1/C=C1\Cc2ccc3ccccc3c2C1C (stereo not given) = 72.4 µM (inactive)
• COc1cc(OC)c(Oc2cccc(OC)c2OC)c(OC)c1 = > 100 µM (inactive)
• C/C(=N\NC1=NCCN1)c1cn(C2=NCCN2)nc1C = 77.6 µM (inactive)
• O=C(O)Cc1ccccc1 [PHENYLACETIC ACID] = > 100 µM (inactive)
• O=C(/C=C/c1ccccc1)Oc1cccc2cccnc12 = 14.3 µM (inactive)
• CC1(C)OC(=S)N(c2ccccc2)C12C=Cc1cc3ccccc3cc1O2 (stereo not given) = > 100 µM (inactive)
• C=C1C(=O)C2=CC1CCC(=O)C1(C)CCC(OC(C)=O)C(C)(C)C1CC2O (stereo not given) = 8.32 µM (inactive)
• COc1ccc(CNc2cnc3ccc(N)cc3n2)cc1 = 64.6 µM (inactive)
